This collection of values is drawn from patent US8222240B2.

Catalogue of compounds with associated EC50
Biological target: GPCR HM74A (niacin receptor) (Homo sapiens, UniProt Q8TDS4)
Sequence (Q8TDS4 whole entry): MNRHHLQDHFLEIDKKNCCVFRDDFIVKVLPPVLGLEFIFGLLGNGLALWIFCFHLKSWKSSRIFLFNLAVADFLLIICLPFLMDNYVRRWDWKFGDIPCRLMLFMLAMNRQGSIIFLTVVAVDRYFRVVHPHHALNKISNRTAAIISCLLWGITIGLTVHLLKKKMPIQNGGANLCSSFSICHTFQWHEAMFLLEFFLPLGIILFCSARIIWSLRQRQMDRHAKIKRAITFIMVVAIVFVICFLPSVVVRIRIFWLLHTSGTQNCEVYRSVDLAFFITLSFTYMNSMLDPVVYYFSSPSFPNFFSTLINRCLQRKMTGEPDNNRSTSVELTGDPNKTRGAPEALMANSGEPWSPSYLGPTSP
Experiment: FLIPR in vitro functional assay, intracellular Ca2+ in recombinant HEK293 cells expressing HM74A and hybrid G-protein
Settings: relative to 1 μM niacin = 100%
Write down the numeric answer in nM and omit the unit.

The measured EC50 associated with CC#CCOC(=O)[C@@H]1C[C@H]1C(=O)O (racemic) [Example 19] reads 1630

The measured EC50 associated with COC(=O)[C@@H]1C[C@H]1C(=O)O [Example 2] reads 130

The measured EC50 associated with CCCOC(=O)[C@@H]1C[C@H]1C(=O)O (racemic) [Example 11] reads 2160

The measured EC50 associated with COC(=O)[C@@H]1C[C@H]1C(=O)O (racemic) [Example 7] reads 630

The measured EC50 associated with COC(=O)[C@@H]1C[C@H]1C(=O)O [Example 1] reads 70

The measured EC50 associated with C#CCOC(=O)[C@@H]1C[C@H]1C(=O)O (racemic) [Example 18] reads 1510

The measured EC50 associated with COC(=O)[C@@H]1C[C@H]1C(=O)O [Example 3] reads 190

====

Molecular target: UniProtKB Q8TDS4
Assay: FLIPR in vitro functional assay, intracellular Ca2+ in recombinant HEK293 cells expressing HM74A and hybrid G-protein
Settings: relative to 1 μM niacin = 100%
Catalogue of molecules with associated EC50

Some solved cases for reference:
CC(C)(C)OC(=O)[C@H]1[C@H](C(=O)O)C1(C)C (racemic)	> 30 µM
CC(C)OC(=O)[C@@H]1C[C@H]1C(=O)O (racemic)	> 30 µM
COC(=O)[C@H]1[C@H](C(=O)O)C1(C)C (racemic)	> 30 µM
O=C(O)[C@@H]1C[C@H]1C(=O)OCC1CCCCC1 (racemic)	> 30 µM
COC(=O)[C@H]1C[C@]1(C)C(=O)OC (relative stereo)	> 30 µM

// moving on: another record for EC50
Kindly note: UniProtKB Q8TDS4, COC(=O)[C@H]1C[C@H]1C(=O)OC , EC50 value reported: > 30 µM

====

Target: GPCR HM74A (niacin receptor) (Homo sapiens)
Assay: FLIPR in vitro functional assay, intracellular Ca2+ in recombinant HEK293 cells expressing HM74A and hybrid G-protein
Details: relative to 1 μM niacin = 100%
reported property: EC50

The measured EC50 associated with COC(=O)[C@H]1C[C@@H]1C(=O)OC (relative stereo) reads > 30 µM

The measured EC50 associated with CC(C)COC(=O)[C@@H]1C[C@H]1C(=O)O (racemic) reads > 30 µM

The measured EC50 associated with CCCCCOC(=O)[C@@H]1C[C@H]1C(=O)O (racemic) reads 1.61 µM

====

Catalogue of molecules with associated EC50
Target: GPCR HM74A (niacin receptor) (Homo sapiens)
Experiment: FLIPR in vitro functional assay, intracellular Ca2+ in recombinant HEK293 cells expressing HM74A and hybrid G-protein
Conditions: relative to 1 μM niacin = 100%
Procedure: in vitro functional assays with recombinant cells; function-testing assays were carried out by means of the FLIPR technique (“Fluorescence Imaging Plate Reader”, Molecular Devices Corp.). For the investigations, cells were seeded into 96-well microtiter plates (60 000 cells/well) and allowed to grow over night. […] After this loading with dye, the cells were washed, test substance was added, and changes in the intracellular Ca^2+ concentration were measured in the FLIPR apparatus.
Write down the numeric answer in nM and omit the unit.

C=CCOC(=O)[C@@H]1C[C@H]1C(=O)O (racemic)	2830
CCCCOC(=O)[C@@H]1C[C@H]1C(=O)O (racemic)	670

The measured EC50 associated with CCOC(=O)[C@@H]1C[C@H]1C(=O)O (racemic) reads 1480
